assay: Cell-based activity under Prompt Conditions: Cell-based activity under Prompt Conditions. Rat or human NHE3-mediated Na+-dependent H+ antiport was measured using a modification of the pH sensitive dye method originally reported by Paradiso (PNAS USA. 81:7436-7440, 1984). Opossum kidney (OK) cells were obtained from the ATCC and propagated per their instructions. The rat NHE3 gene (GenBank M85300) or the human NHE3 gene (GenBank NM_004174.1) was introduced into OK cells via electroporation, and cells were seeded into 96 well plates and grown overnight. Medium was aspirated from the wells, cells were washed twice with NaCl-HEPES buffer (100 mM NaCl, 50 mM HEPES, 10 mM glucose, 5 mM KCl, 2 mM CaCl2, 1 mM MgCl2, pH 7.4), then incubated for 30 min at room temperature with NH4Cl-HEPES buffer (20 mM NH4Cl, 80 mM NaCl, 50 mM HEPES, 5 mM KCl, 2 mM CaCl2, 1 mM MgCl2, pH 7.4) containing 5 μM bis(acetoxymethyl) 3,3′-(3′,6′-bis(acetoxymethoxy)-5-((acetoxymethoxy)carbonyl)-3-oxo-3H-spiro[isobenzofuran-1,9′-xanthene]-2′,7′-diyl)dipropanoate (BCECF-AM).Cells were washed twice with Ammonium free, Na+-free HEPES (100 mM choline, 50 mM HEPES, 10 mM glucose, 5 mM KCl, 2 mM CaCl2, 1 mM MgCl2, pH 7.4) and incubated in the same buffer for 10 minutes at room temperature to lower intracellular pH. […] Initial rates were plotted as the average 2 or more replicates, and pIC50 values were estimated using GraphPad Prism.
PARAMETER: pIC50
pIC50 (log units): -log10 of the concentration in mol/L.

Return the recorded pIC50 value; entry: `CN1Cc2c(Cl)cc(Cl)cc2[C@H](c2cccc(S(=O)(=O)NCCOCCOCCOCCNC(=O)CC(CC(=O)NCCOCCOCCOCCNS(=O)(=O)c3cccc([C@@H]4CN(C)Cc5c(Cl)cc(Cl)cc54)c3)C(=O)NCCOCCOCCOCCNS(=O)(=O)c3cccc([C@@H]4CN(C)Cc5c(Cl)cc(Cl)cc54)c3)c2)C1`
7.50

State its pIC50 for this molecule: `C/C(=C\c1cc(F)c(Oc2ccc(S(=O)(=O)NCCOCCOCCOCCNC(=O)[C@H](O)[C@@H](O)C(=O)NCCOCCOCCOCCNS(=O)(=O)c3ccc(Oc4c(F)cc(/C=C(\C)C(=O)N=C(N)N)cc4F)cc3)cc2)c(F)c1)C(=O)N=C(N)N`
6.90

Name the recorded pIC50 of the item `CN1Cc2c(Cl)cc(Cl)cc2[C@H](c2cccc(S(=O)(=O)NCCOCCOCCOCCNC(=O)NCCN3CCN(c4nc(N5CCN(CCNC(=O)NCCOCCOCCOCCNS(=O)(=O)c6cccc([C@@H]7CN(C)Cc8c(Cl)cc(Cl)cc87)c6)CC5)nc(N5CCN(CCNC(=O)NCCOCCOCCOCCNS(=O)(=O)c6cccc([C@@H]7CN(C)Cc8c(Cl)cc(Cl)cc87)c6)CC5)n4)CC3)c2)C1` in your answer.
6.70

Please report the measured pIC50 for `N=C(N)Nc1nc(-c2ccc(OCCOCCOCCOCCN)cc2)c2cc(Cl)ccc2n1`
7.50

Tell me its pIC50 given `NCCOCCOCCOc1cccc(-c2nc(N=C(N)N)nc3ccc(Cl)cc23)c1` as the entry.
6.65

Give pIC50 for the following molecule: `O=C(NCCCCNC(=O)NCCOCCOCCNS(=O)(=O)c1ccc(O[C@H]2c3cc(F)ccc3C[C@@H]2N2CCCCC2)cc1)NCCOCCOCCNS(=O)(=O)c1ccc(O[C@H]2c3cc(F)ccc3C[C@@H]2N2CCCCC2)cc1`
8.90

Return value of pIC50 for input `N=C(N)Nc1nc(-c2cccc(S(=O)(=O)NCCOCCOCCN)c2)c2cc(Cl)ccc2n1` , no commentary.
6.30

Let me know recorded pIC50 for `CCCCNC(=O)NCCOCCOCCNC(=O)NCCOCCOCCOCCOc1ccc(-c2nc(NC(=N)N)nc3ccc(Cl)cc23)cc1` , thanks.
7.60

Answer with the recorded pIC50 of CCOCCOCCOCCOCCC(=O)NCCOCCOCCNS(=O)(=O)c1ccc(OC2c3ccccc3C[C@@H]2N2CCCCC2)cc1 (stereo partly drawn) only.
7.30

Output pIC50 of `CN1Cc2c(Cl)cc(Cl)cc2[C@H](c2cccc(S(=O)(=O)NCCOCCOCCNC(=O)CCC(=O)NCCOCCOCCNS(=O)(=O)c3ccc(O[C@H]4c5ccccc5C[C@@H]4N4CCCCC4)cc3)c2)C1`
7.50

Dear colleague, please send me the reported pIC50 for `CN1Cc2c(Cl)cc(Cl)cc2[C@H](c2cccc(S(=O)(=O)NCCOCCOCCOCCNC(=O)CCC(N)(CCC(=O)NCCOCCOCCOCCNS(=O)(=O)c3cccc([C@@H]4CN(C)Cc5c(Cl)cc(Cl)cc54)c3)CCC(=O)NCCOCCOCCOCCNS(=O)(=O)c3cccc([C@@H]4CN(C)Cc5c(Cl)cc(Cl)cc54)c3)c2)C1` when you can.
7.20

Output measured pIC50 for this item: `CN1Cc2c(Cl)cc(Cl)cc2[C@H](c2cccc(S(=O)(=O)NCCOCCOCCNC(=O)NCCCN(CCCNC(=O)NCCOCCOCCNS(=O)(=O)c3cccc([C@@H]4CN(C)Cc5c(Cl)cc(Cl)cc54)c3)CCCNC(=O)NCCOCCOCCNS(=O)(=O)c3cccc([C@@H]4CN(C)Cc5c(Cl)cc(Cl)cc54)c3)c2)C1`
6.25

Consider the molecule `CCOCCN(CC(=O)NCCOCCOCCOCCNS(=O)(=O)c1cccc([C@@H]2CN(C)Cc3c(Cl)cc(Cl)cc32)c1)CC(=O)NCCOCCOCCOCCNS(=O)(=O)c1cccc([C@@H]2CCN(C)c3c(Cl)cc(Cl)cc32)c1` . State its measured pIC50.
7.20
